Answer each item with its documented pIC50.
# System Under Test: Aurora kinase B (Homo sapiens, UniProt Q96GD4)
# Sequence (Q96GD4 whole entry): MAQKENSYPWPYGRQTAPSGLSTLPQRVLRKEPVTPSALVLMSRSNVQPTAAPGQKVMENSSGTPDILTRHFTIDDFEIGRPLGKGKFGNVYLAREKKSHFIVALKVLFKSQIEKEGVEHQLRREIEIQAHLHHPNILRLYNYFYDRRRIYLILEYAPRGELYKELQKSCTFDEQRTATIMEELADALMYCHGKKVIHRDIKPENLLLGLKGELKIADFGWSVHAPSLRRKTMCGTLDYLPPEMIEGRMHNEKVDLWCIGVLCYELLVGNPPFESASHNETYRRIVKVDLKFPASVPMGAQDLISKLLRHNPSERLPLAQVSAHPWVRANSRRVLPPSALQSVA
// pIC50: -log10(molar conc.)

# input molecule: COc1ccc(-c2nc3c(NCCCNC(=O)C4CC4)c(Br)cnc3[nH]2)cc1 ; wanted: its pIC50
7.60

// pIC50 lookup, key: COc1ccc(-c2nc3c(NCCCNC(=O)C4CCCC4)c(Br)cnc3[nH]2)cc1
7.03

// lookup pIC50 for COc1cc(F)ccc1-c1nc2c(NCCCNC(=O)C3CCC3)c(Br)cnc2[nH]1
6.18

Look up pIC50: COc1ccc(F)cc1-c1nc2c(NCCCNC(=O)C3CCC3)c(Br)cnc2[nH]1
6.43

For the molecule shown here, COc1ccc(-c2nc3c(NCCCNC(=O)c4ccccc4)c(Br)cnc3[nH]2)cc1 , give the reported pIC50.
6.13

Look at this molecule and give its reported pIC50. COc1ccc(-c2nc3c(NCCCNC(=O)C4(CN)CC4)c(Br)cnc3[nH]2)cc1
7.54

GET /values?readout=pIC50&item= COc1ccc(-c2nc3c(NCCCNC(=O)C(C)(C)C)c(Br)cnc3[nH]2)cc1
7.09
